test system: SK-OV-3 ovarian; test: NCI tumour cell line growth inhibition, 48 h
Quick list: TGI per entry.

compound: NS(=O)(=O)c1ccc(NNC(=O)c2cccc3c(=O)c4ccccc4[nH]c23)cc1
TGI: > 100 µM

compound: CCCCCCN(CCCCCC)CCCNc1nccc2ccccc12
TGI: 5.03 µM

compound: CN(C)c1nc(N(C)C)nc(N(C)CN(C)c2ccccc2)n1
TGI: > 100 µM

compound: CC(C)(O)[C@@H]1CCC(C)([C@H]2[C@@H](O)CC3(C)C4CC(OC5OC(CO)C(O)C(O)C5O)C5C(C)(C)[C@@H](OC6OCC(O)C(O)C6O)CC[C@@]56C[C@@]46CC[C@]23C)O1 (some centres not stated)
TGI: > 100 µM

compound: COc1ccc(C2CCc3nc4nc(N)nc(N)c4cc3C2)cc1 (configuration not stated)
TGI: 25.3 µM

compound: NS(=O)(=O)c1nnc(NC(=O)CCC(=O)O)s1
TGI: > 100 µM

compound: C=CCC(C(=O)OC)C1(C(=O)OC)c2[nH]c3ccccc3c2CCN1Cc1ccccc1 (configuration not stated)
TGI: > 100 µM

====

test system: A498 renal; assay: NCI tumour cell line growth inhibition, 48 h
valueType: TGI (µM)

molecule: COc1ccc(/C=C/c2cc(OC)c(O[Si](C)(C)C(C)(C)C)c(OC)c2)cc1
modifierSign: >
readoutNumber: 100

molecule: CCN(CC)CC(O)c1ccc2ccc3ccccc3c2c1 (stereo unspecified)
modifierSign: =
readoutNumber: 26.3

molecule: CN1CCc2c(sc3nc(Nc4ccccc4)n(N)c(=O)c23)C1
modifierSign: >
readoutNumber: 100

molecule: Cc1csc2c(P(=O)(OC(C)C)OC(C)C)c(-c3ccccc3)cn12
modifierSign: =
readoutNumber: 34.1

molecule: CC1=C(C(=O)Nc2cccc(C(F)(F)F)c2)C(c2ccc(O)cc2)C(C(=O)Nc2cccc(C(F)(F)F)c2)=C(C)N1
modifierSign: =
readoutNumber: 71.9

molecule: CC(C)(C)OC(=O)N1C(C2=COc3ccccc3O2)=COc2ccccc21
modifierSign: =
readoutNumber: 40.2

molecule: COC(=O)N1CC[C@@H]2CCC=C(c3cccc4c3OCO4)[C@@H]21
modifierSign: >
readoutNumber: 100

molecule: COc1ccc2c(c1)/C(=C(\C(Cl)=C(\Cl)N1CCCCC1)[N+](=O)[O-])N2
modifierSign: >
readoutNumber: 100

molecule: CC1C2Cc3ccc(O)cc3C1(C)CCN2C (stereo unspecified)
modifierSign: >
readoutNumber: 100

molecule: CCN(CC)CCNc1ccc([N+](=O)[O-])c2nc3ccccc3c(N)c12
modifierSign: =
readoutNumber: 2.91

molecule: COC(=O)[C@]12CC[C@@H](C)[C@H](C)[C@@H]1C1=CC[C@@H]3[C@@]4(C)C[C@@H](OC(=O)c5ccco5)[C@H](O)[C@@](C)(CO)[C@@H]4[C@H](O)C[C@@]3(C)[C@]1(C)CC2
modifierSign: =
readoutNumber: 7.75

====

system: KM12 colon; assay: NCI tumour cell line growth inhibition, 48 h
valueType: log10 TGI (log10 of the value in µM)

molecule: O=C(Oc1cccnc1)c1ccccc1Nc1ccnc(C(F)(F)F)c1
log10 TGI: 0.43
--
molecule: O=C1CCc2c3c(c4c([nH]c5ccccc54)c2CC1)C(=O)NC3=O
log10 TGI: 1.26
--
molecule: CCN(CC)CCn1ncc2ccc3c(c(=O)c4cccnc4n3CCN(CC)CC)c21
log10 TGI: 0.60
--
molecule: COC1/C=C\C=C(/C)C(=O)NC2=CC(=O)C=C(C2=O)C(OC)C(C)CC(OC)C(OC)C(C)/C=C(/C)C1OC(N)=O (centres undefined)
log10 TGI: 1.30
--
molecule: CC/C(=N\Nc1nc2ccccc2n1C)c1ccccn1
log10 TGI: 1.05
--
molecule: Cc1csc2c(P(=O)(OC(C)C)OC(C)C)c(-c3ccccc3)cn12
log10 TGI: 1.49

Data provenance: PubChem BioAssay (NCI)
